# System: MCF-7 cell line (breast cancer)
# PROCEDURE SUMMARY: MTT cytotoxicity assay, MCF-7
# Format: cell-based, human
# MEASUREMENT CONTEXT: Homo sapiens, MCF7, read-out: IC50 ± SD, MCF-7, inhibition of growth of tumor cell lines
pIC50: −log10 of the molar value.
OUTCOME MEASURE: pIC50

# COMPOUND, MEASURED VALUE
rows = [
    ("COc1ccc(-c2nn(C(=O)c3ccncc3)cc2C2SCC(=O)N2c2ccccc2[N+](=O)[O-])cc1 (stereo not shown) [Compound P-10]", 5.99),
    ("COc1ccc(-c2nn(C(=O)c3ccncc3)cc2C2SCC(=O)N2c2ccc(Cl)cc2)cc1 (stereo not shown) [Compound P-11]", 5.60),
    ("O=C1CSC(c2cn(C(=O)c3ccncc3)nc2-c2ccc([N+](=O)[O-])cc2)N1c1ccccc1[N+](=O)[O-] (stereo not shown) [Compound P-3]", 5.35),
    ("O=C1CSC(c2cn(C(=O)c3ccncc3)nc2-c2ccc(Br)cc2)N1c1ccc([N+](=O)[O-])cc1 (stereo not shown) [Compound P-16]", 5.65),
]

###

# System: MCF-7 cell line (breast cancer)
# PROCEDURE SUMMARY: MTT cytotoxicity assay, MCF-7
# Assay type: cell-based, human
# MEASUREMENT CONTEXT: Homo sapiens, MCF7, read-out: IC50 ± SD, MCF-7, inhibition of growth of tumor cell lines
log10 IC50 reference
OUTCOME MEASURE: log10 IC50 (log10 of the value in µM)

# COMPOUND, MEASURED VALUE
rows = [
    ("O=C1CSC(c2cn(C(=O)c3ccncc3)nc2-c2ccc([N+](=O)[O-])cc2)N1c1ccccc1 (stereo not shown)", 0.64),
    ("O=C1CSC(c2cn(C(=O)c3ccncc3)nc2-c2ccc([N+](=O)[O-])cc2)N1c1cccc(Cl)c1 (stereo not shown)", 0.60),
    ("COc1ccc(N2C(=O)CSC2c2cn(C(=O)c3ccncc3)nc2-c2ccc(Br)cc2)cc1 (stereo not shown)", -0.25),
    ("COc1ccc(-c2nn(C(=O)c3ccncc3)cc2C2SCC(=O)N2c2ccccc2)cc1 (stereo not shown)", 0.78),
    ("O=C1CSC(c2cn(C(=O)c3ccncc3)nc2-c2ccc([N+](=O)[O-])cc2)N1c1ccc([N+](=O)[O-])cc1 (stereo not shown)", 0.51),
    ("COc1ccc(N2C(=O)CSC2c2cn(C(=O)c3ccncc3)nc2-c2ccc([N+](=O)[O-])cc2)cc1 (stereo not shown)", -0.36),
    ("COc1ccccc1N1C(=O)CSC1c1cn(C(=O)c2ccncc2)nc1-c1ccc([N+](=O)[O-])cc1 (stereo not shown)", -0.06),
]

###

Reported values of melting point for individual entries

# COMPOUND, melting point
measured = [
    ("COc1ccc(-c2nn(C(=O)c3ccncc3)cc2C2SCC(=O)N2c2ccc(Cl)cc2)cc1 (stereo not drawn) [Compound P-11]", "318 to 320 °C"),
    ("O=C1CSC(c2cn(C(=O)c3ccncc3)nc2-c2ccc([N+](=O)[O-])cc2)N1c1ccc(Cl)cc1 (stereo not drawn) [Compound P-4]", "286 to 288 °C"),
    ("COc1ccc(-c2nn(C(=O)c3ccncc3)cc2C2SCC(=O)N2c2ccccc2)cc1 (stereo not drawn) [Compound P-8]", "300 to 302 °C"),
    ("COc1ccccc1N1C(=O)CSC1c1cn(C(=O)c2ccncc2)nc1-c1ccc(Br)cc1 (stereo not drawn) [Compound P-21]", "260 to 262 °C"),
    ("COc1ccccc1N1C(=O)CSC1c1cn(C(=O)c2ccncc2)nc1-c1ccc([N+](=O)[O-])cc1 (stereo not drawn) [Compound P-7]", "250 to 252 °C"),
    ("COc1ccc(-c2nn(C(=O)c3ccncc3)cc2C2SCC(=O)N2c2ccccc2[N+](=O)[O-])cc1 (stereo not drawn) [Compound P-10]", "322 to 324 °C"),
    ("COc1ccc(-c2nn(C(=O)c3ccncc3)cc2C2SCC(=O)N2c2ccc([N+](=O)[O-])cc2)cc1 (stereo not drawn) [Compound P-9]", "308 to 310 °C"),
    ("O=C1CSC(c2cn(C(=O)c3ccncc3)nc2-c2ccc([N+](=O)[O-])cc2)N1c1ccccc1[N+](=O)[O-] (stereo not drawn) [Compound P-3]", "282 to 284 °C"),
    ("COc1ccc(-c2nn(C(=O)c3ccncc3)cc2C2SCC(=O)N2c2cccc(Cl)c2)cc1 (stereo not drawn) [Compound P-12]", "338 to 340 °C"),
    ("O=C1CSC(c2cn(C(=O)c3ccncc3)nc2-c2ccc(Br)cc2)N1c1ccccc1 (stereo not drawn) [Compound P-15]", "256 to 258 °C"),
    ("COc1ccc(-c2nn(C(=O)c3ccncc3)cc2C2SCC(=O)N2c2ccccc2OC)cc1 (stereo not drawn) [Compound P-14]", "336 to 338 °C"),
    ("O=C1CSC(c2cn(C(=O)c3ccncc3)nc2-c2ccc(Br)cc2)N1c1ccc([N+](=O)[O-])cc1 (stereo not drawn) [Compound P-16]", "268 to 270 °C"),
    ("O=C1CSC(c2cn(C(=O)c3ccncc3)nc2-c2ccc(Br)cc2)N1c1ccc(Cl)cc1 (stereo not drawn) [Compound P-18]", "244 to 246 °C"),
    ("O=C1CSC(c2cn(C(=O)c3ccncc3)nc2-c2ccc(Br)cc2)N1c1cccc(Cl)c1 (stereo not drawn) [Compound P-19]", "248 to 250 °C"),
    ("O=C1CSC(c2cn(C(=O)c3ccncc3)nc2-c2ccc([N+](=O)[O-])cc2)N1c1cccc(Cl)c1 (stereo not drawn) [Compound P-5]", "274 to 276 °C"),
]

###

# System: MCF-7 cell line (breast cancer)
# PROCEDURE SUMMARY: MTT cytotoxicity assay, MCF-7
# Format: cell-based, human
# MEASUREMENT CONTEXT: Homo sapiens, MCF7, read-out: IC50 ± SD, MCF-7, inhibition of growth of tumor cell lines
Please respond with True when measured IC50 is strictly beneath 2000 nM, and with False in all other cases.

# COMPOUND, CATEGORY
rows = [
    ("O=C1CSC(c2cn(C(=O)c3ccncc3)nc2-c2ccc(Br)cc2)N1c1ccc(Cl)cc1 (stereo not shown) [Compound P-18]", "True"),
    ("COc1ccc(-c2nn(C(=O)c3ccncc3)cc2C2SCC(=O)N2c2ccc(OC)cc2)cc1 (stereo not shown) [Compound P-13]", "False"),
    ("O=C1CSC(c2cn(C(=O)c3ccncc3)nc2-c2ccc([N+](=O)[O-])cc2)N1c1ccc(Cl)cc1 (stereo not shown) [Compound P-4]", "False"),
    ("COc1ccc(-c2nn(C(=O)c3ccncc3)cc2C2SCC(=O)N2c2ccc([N+](=O)[O-])cc2)cc1 (stereo not shown) [Compound P-9]", "True"),
    ("O=C1CSC(c2cn(C(=O)c3ccncc3)nc2-c2ccc(Br)cc2)N1c1ccccc1 (stereo not shown) [Compound P-15]", "False"),
    ("O=C1CSC(c2cn(C(=O)c3ccncc3)nc2-c2ccc(Br)cc2)N1c1cccc(Cl)c1 (stereo not shown) [Compound P-19]", "True"),
    ("COc1ccc(-c2nn(C(=O)c3ccncc3)cc2C2SCC(=O)N2c2cccc(Cl)c2)cc1 (stereo not shown) [Compound P-12]", "False"),
]

###

# ASSAY SYSTEM: recombinant human Aurora-A (Homo sapiens, UniProt O14965)
# Sequence (O14965 whole entry): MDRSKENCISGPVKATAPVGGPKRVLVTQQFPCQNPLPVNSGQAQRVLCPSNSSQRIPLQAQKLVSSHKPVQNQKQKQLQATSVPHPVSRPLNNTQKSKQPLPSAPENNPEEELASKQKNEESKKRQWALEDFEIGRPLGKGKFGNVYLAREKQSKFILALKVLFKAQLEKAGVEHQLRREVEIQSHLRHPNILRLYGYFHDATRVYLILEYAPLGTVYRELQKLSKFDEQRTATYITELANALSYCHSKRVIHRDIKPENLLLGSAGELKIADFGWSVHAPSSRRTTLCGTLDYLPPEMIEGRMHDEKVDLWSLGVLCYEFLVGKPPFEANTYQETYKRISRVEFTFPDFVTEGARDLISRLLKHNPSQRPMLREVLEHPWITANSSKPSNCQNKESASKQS
# PROCEDURE SUMMARY: biochemical
# MEASUREMENT CONTEXT: NADH consumption at 340 nm, 30 °C; read-out: IC50 ± SD, inhibition of Aurora-A kinase
pIC50: −log10 of the molar value.
Assign class by pIC50: not lower than 6 means Yes; lower than 6 means No.

# MOLECULE, CATEGORY
rows = [
    ("COc1ccc(N2C(=O)CSC2c2cn(C(=O)c3ccncc3)nc2-c2ccc(Br)cc2)cc1 (centres unmarked)", "Yes"),
    ("O=C1CSC(c2cn(C(=O)c3ccncc3)nc2-c2ccc([N+](=O)[O-])cc2)N1c1ccccc1[N+](=O)[O-] (centres unmarked)", "No"),
    ("COc1ccc(-c2nn(C(=O)c3ccncc3)cc2C2SCC(=O)N2c2ccc(Cl)cc2)cc1 (centres unmarked)", "No"),
]
